- RUN_DESCRIPTION: NCI Yeast Anticancer Drug Screen. Data for the mec2-1 strain (AID 157)
- CONDITION: S. cerevisiae mec2-1 strain, at 50.0 µM, hits give high values
This is part of a sample that, as a whole, favours compounds with a hit. Of some 79,000 tested, about 15% had one in any assay.
METRIC: growth inhibition (%)
Express it in %; write the number only.

Examples from the recorded data:
SMILES_INPUT: C#CCn1c(I)cc2c(c1=O)COC(=O)[C@]2(O)CC
growth inhibition [%]: -3.3
//
SMILES_INPUT: COc1ccccc1[As](=O)(O)c1ccccc1
growth inhibition [%]: -0.85
//
SMILES_INPUT: CC(=O)[O-].CC(=O)[O-].[Mn+2].c1ccc(/C(=N\Nc2ccccn2)c2ccccn2)cc1
growth inhibition [%]: 91.5
//
SMILES_INPUT: Cc1cc(N(CCCl)CCCl)ccc1C1N(Cc2ccc(N(CCCl)CCCl)cc2)CCCN1Cc1ccc(N(CCCl)CCCl)cc1
growth inhibition [%]: 7.8
//
SMILES_INPUT: CC(=O)[CH-]C(C)=O.CC(=O)[CH-]C(C)=O.CC(=O)[CH-]C(C)=O.[Cl-].[Hf+4]
growth inhibition [%]: -1.25
//
SMILES_INPUT: CCOC(=O)NP(=O)(Nc1ccc(C)cc1)Nc1ccc(C)cc1
growth inhibition [%]: -12
//
SMILES_INPUT: Oc1c(Cl)cc(Cl)cc1C1N(Cc2ccc(N(CCCl)CCCl)cc2Cl)CCCN1Cc1ccc(N(CCCl)CCCl)cc1Cl
growth inhibition [%]: 15.6
//
SMILES_INPUT: O=P(O)(O)c1ccccc1
growth inhibition [%]: -3.85

Problem: Which growth inhibition is listed for CC[N+](CC)(CC)CC.[C-]#[O+].[C-]#[O+].[C-]#[O+].[Cr+4].[c-]1[c-][c-][cH-][c-]1 ?
Result: 12.4

Problem: Which growth inhibition is listed for CC(C)=CCC1=C(OOC2=C(CC=C(C)C)C(=O)c3ccccc3C2=O)C(=O)c2ccccc2C1=O ?
Result: 23.8

Problem: Which growth inhibition is listed for N#Cc1ccc(Cl)cc1 ?
Result: -21.7
